Measured z-score accompanies every entry in the list below.
- assay.method.text: basal S. cerevisiae growth modulation, no modifier, primary screen, OD600, strain BY4716, 24 h, basal condition (AID 1173)
- condition.context: OD600, 24 h, higher = more signal, called active from +8 up or from −8 down

compound: CC(C)C[C@H]1NC(=O)[C@@]23C(=O)N[C@@H](Cc4ccccc4)C2[C@H](C)[C@@]2(C)O[C@H]2C3/C=C/C/C=C\CNC(=O)[C@H](Cc2ccccc2)NC1=O (stereo partly drawn)
z-score: 0.0247
//
compound: COCCOC(=O)N1C(=O)[C@@]2(c3cc(C#CCCO)ccc31)[C@H](C(=O)N1CCc3cc(OC)c(OC)cc3C1)[C@H]1C(=O)O[C@H](c3ccccc3)[C@H](c3ccccc3)N1[C@@H]2c1ccc(O)cc1
z-score: -0.253
//
compound: C=CC[C@]1(C(=O)NCCCOC)N=C(c2ccc(OCCCO)cc2)O[C@H]1c1ccccc1N=[N+]=[N-]
z-score: 0.215
//
compound: C=CC[C@@]1(C(N)=O)N=C(c2ccc(OCCCO)cc2)O[C@@H]1c1ccccc1CN=[N+]=[N-]
z-score: -0.935
//
compound: CCCC#C[Si](O[C@H](CC)c1cn([C@H](CO)Cc2ccccc2)nn1)(C(C)C)C(C)C
z-score: -12.8
//
compound: COC(=O)[C@@]1(Cc2ccccc2)[C@H]2c3cc(C(=O)N(C)C)n(CCSCCO)c3C[C@H]2CN1C(=O)c1ccccc1
z-score: 0.319
//
compound: NCCCCCNC(=O)[C@@H]1C[C@@H]2C(=O)NCC(=O)N2[C@@H]1c1ccc(O)cc1
z-score: -0.54
//
compound: CC(C)c1ccc(NN2C(C(O)C(c3ccccc3)c3ccccc3)C=CC3C(=O)N(c4ccccc4)C(=O)C32)cc1 (stereo not drawn)
z-score: -0.141
//
compound: CC1CC/C=C\[C@H]2OC34C=CCN(c5ccc(Cl)cc5)C(=O)[C@H]3N(CCO)C(=O)[C@]4(C)C2C(=O)O1 (stereo partly drawn)
z-score: -0.152
//
compound: CCOC(=O)C1=CCC(c2ccccc2)N(S(=O)(=O)CC[Si](C)(C)C)C1 (stereo not drawn)
z-score: -1.48
//
compound: CC(C)N1C(=O)[C@@]2(Cc3ccccc31)c1ccccc1C(=O)N(C1CCCCC1)[C@H]2c1ccc(CO)cc1
z-score: -0.536
//
compound: C=CCNC(=O)[C@H]1[C@@H]2C(=O)O[C@@H](c3ccccc3)[C@@H](c3ccccc3)N2[C@@H](c2ccccc2OCCO)[C@]12C(=O)Nc1ccc(C#CC3=CCCCC3)cc12
z-score: 1.97
//
compound: O=C1OCC=C[C@H]2OC34C=CCN(CCN5CCOCC5)C(=O)[C@H]3N(CCCO)C(=O)[C@@H]4[C@@H]12 (stereo partly drawn)
z-score: -0.187
//
compound: CCCCN1CC=CC23O[C@@H]4C=CCOC(=O)[C@@H]4[C@H]2C(=O)N(CCCCCO)[C@@H]3C1=O (stereo partly drawn)
z-score: 0.0133
//
compound: CC[C@@H]1C=C(C(=O)O)[C@H](c2ccco2)N1S(=O)(=O)c1ccc(C)cc1
z-score: 0.538
//
compound: C=CC[C@]1(C(=O)N2CCCCC2)N=C(c2ccc(OCCCO)cc2)O[C@H]1c1ccccc1
z-score: -2.06
//
compound: [N-]=[N+]=Nc1ccccc1C[C@]1(C(N)=O)N=C(c2ccc(OCCCO)cc2)O[C@H]1c1ccccc1
z-score: -0.936
//
compound: COCCOC(=O)N1C(=O)[C@@]2(c3cc(C#CC4=CCCCC4)ccc31)[C@H](C(N)=O)[C@H]1C(=O)O[C@H](c3ccccc3)[C@H](c3ccccc3)N1[C@@H]2c1ccc(OCCO)cc1
z-score: 1.04
//
compound: [N-]=[N+]=NCc1ccccc1C[C@]1(C(=O)N2CCOCC2)N=C(c2ccc(OCCCO)cc2)O[C@H]1c1ccccc1N=[N+]=[N-]
z-score: -1.05
//
compound: CC(C)(C)C(=O)N[C@@H](c1ccc(Cl)cc1)[C@]1(C)C[C@H]1C1CCCCC1
z-score: -0.507
//
compound: CC(C)N1C(=O)c2ccccc2[C@](C)(C(=O)NCc2ccccc2)[C@@H]1c1ccc(CO)cc1
z-score: -0.704
//
compound: CC(CO)N1C(=O)[C@@H]2C3C(=O)OCCC/C=C\[C@H]3OC23C=CCN(c2ccc4ccccc4c2)C(=O)[C@@H]13 (stereo partly drawn)
z-score: -0.55
//
compound: CCCCCCC#C[Si](O[C@H](c1ccccc1)c1cn([C@H](CO)Cc2ccccc2)nn1)(C(C)C)C(C)C
z-score: -1.93

###

- assay.method.text: basal RPMI8226 mitochondrial membrane potential changes, profiling panel, cell-based, JC-1 fluorescence, 24 h, 100 nL compound (AID 1169); further: test concentration not given here
- condition.context: RPMI8226 myeloma, JC-1 mitochondrial potential fluorescence, higher = more signal

molecule: CC(C)(C)OC(=O)CC[C@]1(C(=O)NCC(O)CO)COC(c2ccc(OCCCO)cc2)=N1 (some centres undefined)
z-score: 0.527
//
molecule: O=C1OCCC/C=C\[C@H]2OC34C=CCN(Cn5nnc6ccccc65)C(=O)[C@H]3N(CCCCCCO)C(=O)[C@@H]4C12 (some centres undefined)
z-score: -0.263
//
molecule: [N-]=[N+]=NCc1ccccc1C[C@]1(C(=O)NCC(O)CO)N=C(c2ccc(OCCCO)cc2)O[C@H]1c1ccccc1 (some centres undefined)
z-score: -0.547
//
molecule: COc1cc2c(cc1O)C=[N+](Cc1cccc(OC(F)(F)F)c1)CC2
z-score: 0.145

###

Measured composite z-score accompanies every entry in the list below.
- Tested on: Human papillomavirus type 1a E7 protein (residues 1-88)
- assay.method.text: HPV1a E7 small-molecule binders, primary screen, biochemical, small-molecule microarray, residues 1-88, 635 nm (AID 1129)
- condition.context: small-molecule microarray binding, fluorescence 635 nm; higher = more signal

compound.string: CC(C)N1C(=O)[C@@]2(Cc3ccccc31)c1ccccc1C(=O)N(C1CCCCC1)[C@H]2c1ccc(CO)cc1
composite z-score: 0.37
//
compound.string: CCOC(=O)C[C@H]1[C@H](OC(=O)c2ccc(C(=O)c3ccccc3)cc2)[C@@H](NC(=O)c2ccc(-c3ccccc3)cc2)c2cc(OCCCO)ccc2N1C(=O)c1ccccc1
composite z-score: 0.87
//
compound.string: COCCOC(=O)N1C(=O)[C@@]2(c3cc(C#CC4=CCCCC4)ccc31)[C@H](C(=O)Nc1nc3ccccc3s1)[C@H]1C(=O)O[C@H](c3ccccc3)[C@H](c3ccccc3)N1[C@@H]2c1ccccc1OCCO
composite z-score: 1.19

###

- study.target: Streptavidin (Streptomyces avidinii) (UniProt P22629)
- Sequence (P22629 whole entry, looked up): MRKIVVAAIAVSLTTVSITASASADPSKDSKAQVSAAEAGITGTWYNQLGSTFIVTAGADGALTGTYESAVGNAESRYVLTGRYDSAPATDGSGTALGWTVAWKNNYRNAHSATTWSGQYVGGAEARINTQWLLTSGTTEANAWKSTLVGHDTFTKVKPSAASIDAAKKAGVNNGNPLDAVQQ
- assay.method.text: streptavidin binders on small-molecule microarray, primary screen, artefact control for SMM compound annotation, biophysical, 635/667 nm fluorescence (AID 1147);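 further: signal reflects streptavidin binding to arrayed compounds as a control protein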
- condition.context: streptavidin binding, higher = more signal
result.type: composite z-score

compound: O=C1C2C=CC(C(O)c3ccc(F)cc3)N(Nc3ccccc3F)C2C(=O)N1c1ccccc1 (stereo not drawn)
result.type: composite z-score
experimental.result: 0.59
//
compound: COC(=O)[C@@]1(Cc2ccc(F)cc2)[C@@H]2[C@@H](CC(=O)[C@H]2CC(=O)C(=O)N(C)C)CN1C(=O)c1ccccc1
result.type: composite z-score
experimental.result: 1.91
//
compound: CN(C)C(=O)[C@]1(Cc2ccccc2N=[N+]=[N-])N=C(c2ccc(OCCCO)cc2)O[C@@H]1c1ccccc1
result.type: composite z-score
experimental.result: 1.4

###

- Test system: Sam68 (KHDRBS1)
- assay.method.text: Sam68 small-molecule binders, primary screen, biochemical, small-molecule microarray, 635 nm fluorescence (AID 1125);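 further: score merges 667 nm channel intensity with signal to noise over triplicate slides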
- condition.context: small-molecule microarray binding, higher = more signal
result.type: composite z-score

compound: OC([C@@H]1CC(c2ccccc2)=NO1)[C@H]1CC(c2ccccc2)=NO1 (stereo not given in full)
experimental.result: -0.285
//
compound: CC(C)N1C(=O)c2ccccc2[C@](C)(C(=O)NCc2ccccc2)[C@@H]1c1ccc(CO)cc1
experimental.result: -0.484
//
compound: COc1ccc(C(=O)Nc2ccc(CN3C(=O)[C@@]4(O[C@@H](CCn5cc([C@H](O)c6ccccc6)nn5)[C@H]([Si](C)(C)c5ccc(OC)cc5)[C@H]4C)c4ccccc43)cc2)cc1
experimental.result: 0.876
//
compound: COC(=O)[C@@]1(Cc2ccccc2)[C@H]2c3cc(C(=O)N4CCCC4)n(Cc4nc5ccccc5[nH]4)c3C[C@H]2CN1C(=O)c1ccccc1
experimental.result: 1.3
//
compound: CCCC#C[Si](O[C@H](CC)c1cn([C@H](CO)Cc2ccccc2)nn1)(C(C)C)C(C)C
experimental.result: 0.838

###

- assay.method.text: COS7 lysate on small-molecule microarray, probe aHis, 635 nm (AID 1123);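 further: z-score combines 667nm fluorescence intensity with signal-to-noise per printed compound spot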
- condition.context: COS7 cell lysate, fluorescence, higher = more signal
Decide by composite z-score: equal to or exceeding 2 means TRUE, less means FALSE.

compound: COc1ccc(C(O)C2C=CC3C(=O)NC(=O)C3N2Nc2ccccn2)cc1 (stereo not given)
qualitative.label: FALSE
//
compound: O=C(C1N=C(c2ccc(OCCCO)cc2)N(c2ccccc2)O1)N1CCOCC1 (stereo not given)
qualitative.label: FALSE
//
compound: C=CC[C@]12N=C(c3ccc(OCCCO)cc3)O[C@H]1c1ccccc1N(Cc1ccccc1)C2=O
qualitative.label: TRUE
//
compound: C=CC[C@@]1(C(=O)N(C)C)N=C(c2ccc(OCCCO)cc2)O[C@@H]1c1ccccc1N=[N+]=[N-]
qualitative.label: TRUE
//
compound: CC1(C)[C@@H]2CC(C(O)C3C=CC4C(=O)N(c5ccccc5)C(=O)C4N3Nc3ccccc3)=C[C@H]1C2 (stereo not given in full)
qualitative.label: FALSE
//
compound: COc1ccc(C(=O)Nc2cccc(CN3C(=O)[C@]4(O[C@H](CCO)[C@@H]([Si](C)(C)c5ccc(OC)cc5)[C@@H]4C)c4ccccc43)c2)cc1
qualitative.label: FALSE
//
compound: C[N+](C)(C)CCCCNC(=O)[C@H]1C[C@H]2C(=O)N[C@@H](Cc3ccccc3)C(=O)N2[C@H]1c1ccc(O)cc1
qualitative.label: FALSE
//
compound: CCCC[C@@H]1C[C@H]1[C@@H](NC(=O)c1ccco1)c1ccc(C(=O)OC)cc1
qualitative.label: FALSE
//
compound: CN(C)CCCNC(=O)[C@@]1(C)c2ccccc2C(=O)N(Cc2cc(F)cc(C(F)(F)F)c2)[C@H]1c1ccc(CO)cc1
qualitative.label: FALSE
//
compound: COc1cc2c(cc1OC)CN(C(=O)[C@H]1[C@@H]3C(=O)O[C@@H](c4ccccc4)[C@@H](c4ccccc4)N3[C@@H](c3ccc(O)cc3)[C@]13C(=O)Nc1ccc(C#CC4=CCCCC4)cc13)CC2
qualitative.label: FALSE
//
compound: CC(C)N1C(=O)[C@@]2(Cc3ccccc31)c1ccccc1C(=O)N(C1CCCCC1)[C@H]2c1ccc(CO)cc1
qualitative.label: FALSE
//
compound: C[C@@H]1ON(c2cccc(C(=O)OC(C)(C)C)c2)[C@H](c2ccc(Br)cc2)[C@H]1C(=O)N1C(=O)OC[C@H]1Cc1ccccc1
qualitative.label: FALSE
//
compound: COc1ccc(C(=O)Nc2ccc(CN3C(=O)[C@@]4(O[C@@H](CCO)[C@H]([Si](C)(C)c5ccc(OC)cc5)[C@H]4C)c4ccccc43)cc2)cc1
qualitative.label: FALSE
//
compound: COc1ccc([Si](C)(C)[C@H]2[C@H](CCO)O[C@@]3(C(=O)N(C)c4c(Br)cc(C)cc43)[C@@H]2C)cc1
qualitative.label: FALSE
//
compound: CCOC(=O)C[C@H]1[C@H](OC(=O)Cc2ccc3c(c2)OCO3)[C@@H](NC(=O)c2ccc3ccccc3c2)c2cc(OCCCO)ccc2N1C(=O)c1ccccc1
qualitative.label: FALSE
//
compound: CCCC=C(CCC)[C@@H](NC(=O)Oc1ccc(F)cc1)c1ccc(C(=O)OC)cc1
qualitative.label: FALSE
//
compound: CCCCCN1CC=CC23O[C@@H]4/C=C\CCCOC(=O)C4[C@H]2C(=O)N(CCCO)[C@@H]3C1=O (stereo not given in full)
qualitative.label: FALSE
//
compound: CC(=O)NCCCC[C@@H]1NC(=O)[C@@H]2C[C@H](C(=O)NCCCCCCNC(=O)CS)[C@H](c3cccc(OCCO)c3)N2C1=O
qualitative.label: FALSE
//
compound: CCCCC(=C=CC[C@@H](O)c1ccccc1OCCO)CCO
qualitative.label: FALSE
//
compound: COC(=O)[C@@]1(Cc2ccc(OC)cc2)[C@H]2c3cc(C(=O)N(C)C)n(Cc4cccc5ccccc45)c3C[C@H]2CN1C(=O)c1ccccc1
qualitative.label: TRUE

Data provenance is PubChem BioAssay.
